# assay: NCI Yeast Anticancer Drug Screen. Data for the mlh1 rad18 strain (AID 175)
# measurement context: S. cerevisiae mlh1 rad18 strain growth inhibition; at 50.0 µM
The panel holds about 79,000 compounds, 15% with a hit somewhere; the sample as a whole holds those more often. Calls of active or inactive are those of the source. Cut-off read from the data, not from the text of the source: active = growth inhibition above about 70%; inactive = the rest.
Output constraint: value belongs to yes (1) = active, no (0) = inactive

A selection of reference data follows.
[
  {
    "molecule": "COC(=O)/C=C(\\C)CC/C=C(\\C)CCC1OC1(C)C (stereo not drawn)",
    "class": "yes (1)"
  },
  {
    "molecule": "C=CCNC(=S)Nc1ccccc1",
    "class": "no (0)"
  }
]

Task: Per the records of this test, what outcome belongs to Oc1ccc(Cl)cc1Cc1cc(Cl)cc(Cc2cc(Cl)cc(Cc3cc(Cl)cc(Cc4cc(Cl)ccc4O)c3O)c2O)c1O ?
Output: no (0)

Task: Per the records of this test, what outcome belongs to [N-]=[N+]=NC1CC(n2cc(Cc3ccccc3)c(N)nc2=O)OC1CO (stereo not drawn) ?
Output: no (0)

Task: Per the records of this test, what outcome belongs to Cc1cccc(C)c1NC(=O)Oc1ccc(Cl)cc1Cc1ccccc1 ?
Output: yes (1)

Task: Per the records of this test, what outcome belongs to O=C(/C(=C(/[O-])C(F)(F)F)[n+]1cccc2ccccc21)C(F)(F)F ?
Output: no (0)

Task: Per the records of this test, what outcome belongs to CC(C)C(C(N)=O)C(C)(C)C (stereo not drawn) ?
Output: no (0)

Task: Per the records of this test, what outcome belongs to COc1ccccc1NCS(=O)(=O)O ?
Output: no (0)

Task: Per the records of this test, what outcome belongs to CC(=O)N(C(C)=O)c1ccc2c3c(cccc13)CC2 ?
Output: no (0)

Task: Per the records of this test, what outcome belongs to S=C(c1ccccc1)N1CCCCC1 ?
Output: no (0)

----------
Provide the recorded growth inhibition for the entries that follow.
# assay: NCI Yeast Anticancer Drug Screen. Data for the cln2 rad14 strain (AID 165);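 note: 0% = growth equal to vehicle treated cultures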
# measurement context: S. cerevisiae cln2 rad14 strain, at 50.0 µM, hits give high values
About 79,000 compounds went through this panel and 15% of them were active in at least one assay; those are over-represented in the sample as a whole.
Give bare numbers, in %.

[
  {
    "compound": "O=C(O)Cc1ccc(OCCCCCOc2ccc(CC(=O)O)cc2)cc1",
    "growth inhibition (%)": -49.9
  },
  {
    "compound": "COc1cc(-c2ccc(NC(=O)N3CC3)c(OC)c2)ccc1NC(=O)N1CC1",
    "growth inhibition (%)": 19.4
  },
  {
    "compound": "COC(=O)COc1cc2c(cc1C(C)c1ccc(O)cc1)OCO2 (stereo unspecified)",
    "growth inhibition (%)": 99.1
  },
  {
    "compound": "O=c1oc2ccc(Cl)cc2c(=O)n1-c1cc(Cl)ccc1[N+](=O)[O-]",
    "growth inhibition (%)": -11.5
  },
  {
    "compound": "CN(C)CN1CSC(=S)N(CN(C)C)C1",
    "growth inhibition (%)": -10.7
  },
  {
    "compound": "CCOC(=O)C(C#N)(Cc1c(-c2ccccc2)[nH]c2ccccc12)NC(C)=O (stereo unspecified)",
    "growth inhibition (%)": -14.6
  },
  {
    "compound": "CCn1c(O)c(C=Nc2ccccc2)s/c1=N/Nc1nc(C)c(C(C)=O)s1",
    "growth inhibition (%)": 16.1
  },
  {
    "compound": "COc1c(Cl)c(Cl)c([N+](=O)[O-])c(Cl)c1Cl",
    "growth inhibition (%)": 7.65
  },
  {
    "compound": "O=C(Nc1ccn(CCI)c(=O)n1)c1ccccc1",
    "growth inhibition (%)": 14.4
  },
  {
    "compound": "C=CCNC(=S)N(Cc1ccccc1)Cc1ccccc1",
    "growth inhibition (%)": 82.9
  }
]

Next compound, growth inhibition to be filled in.
Task: Param item = C[C@@H]1S[C@H](c2c(F)cccc2Cl)n2c1nc1ccccc12 ; retrieve measured growth inhibition.
Output: 82.2
